experimental_target: pancreatic lipase (PL) (Homo sapiens, UniProt P16233)
Sequence (P16233 17-465): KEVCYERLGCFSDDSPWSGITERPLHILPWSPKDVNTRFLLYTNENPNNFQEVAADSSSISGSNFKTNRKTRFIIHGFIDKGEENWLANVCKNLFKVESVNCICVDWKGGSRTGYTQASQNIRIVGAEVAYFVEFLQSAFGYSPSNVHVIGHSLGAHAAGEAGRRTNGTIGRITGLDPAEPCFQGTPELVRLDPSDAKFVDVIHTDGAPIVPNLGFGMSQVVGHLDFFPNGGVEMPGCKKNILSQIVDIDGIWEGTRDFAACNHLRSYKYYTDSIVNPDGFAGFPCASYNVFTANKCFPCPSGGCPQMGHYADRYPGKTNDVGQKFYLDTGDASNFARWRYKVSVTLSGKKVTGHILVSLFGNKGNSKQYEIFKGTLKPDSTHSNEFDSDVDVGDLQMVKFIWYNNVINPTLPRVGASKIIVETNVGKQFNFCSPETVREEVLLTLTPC
assay_summary: pancreatic lipase (PL) inhibitory assay
Format: biochemical
measurement_label: IC50
Output should be the measured figure followed by the unit it is expressed in.

Quote pancreatic lipase (PL) (Homo sapiens, UniProt P16233) IC50 for entry `C/C=C/C=C/[C@@H]1Cc2c(CC(=O)O)c(O)cc(O)c2O1` .
127 µM

---

experimental_target: acetylcholinesterase (AChE) (Homo sapiens, UniProt P22303)
Construct: purchased Solarbio, Beijing, China
Sequence (P22303 32-614, species assumed): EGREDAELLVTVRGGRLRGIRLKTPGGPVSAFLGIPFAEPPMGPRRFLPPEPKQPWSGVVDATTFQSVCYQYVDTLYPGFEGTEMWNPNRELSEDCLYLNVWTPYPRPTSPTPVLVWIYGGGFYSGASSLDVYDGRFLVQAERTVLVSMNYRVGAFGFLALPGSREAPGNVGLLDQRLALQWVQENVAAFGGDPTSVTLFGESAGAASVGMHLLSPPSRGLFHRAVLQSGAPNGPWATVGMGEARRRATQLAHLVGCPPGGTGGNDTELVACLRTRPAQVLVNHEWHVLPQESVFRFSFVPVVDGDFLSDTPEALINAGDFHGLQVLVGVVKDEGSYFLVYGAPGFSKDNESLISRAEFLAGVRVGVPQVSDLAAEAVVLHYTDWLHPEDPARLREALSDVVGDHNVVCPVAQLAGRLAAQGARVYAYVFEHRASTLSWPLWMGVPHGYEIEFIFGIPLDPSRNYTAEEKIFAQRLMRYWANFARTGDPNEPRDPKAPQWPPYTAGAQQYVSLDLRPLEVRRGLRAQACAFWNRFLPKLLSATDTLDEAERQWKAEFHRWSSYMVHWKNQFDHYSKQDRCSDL
assay_summary: acetylcholinesterase (AChE) inhibition, modified Ellman method
Type: biochemical
reported_conditions: concentration of 50 μg/mL; read-out: inhibition rate against AChE
measurement_label: inhibition at 50 µg/mL

Consider the following illustrative entries.
Name the recorded inhibition at 50 µg/mL of the item COc1cc(/C=C/C(=O)O)ccc1O [Compound 14, trans-ferulic acid] in your answer.
20 to 26%

State its inhibition at 50 µg/mL for this compound: CCC(C)C(=O)Cc1oc(=O)c(C)c(O)c1C (stereo not shown) [Compound 10, paecilpyrone A]
20 to 26%

Dear colleague, please send me the reported inhibition at 50 µg/mL for COC(=O)Cc1cccc(O)c1 [Compound 13, methyl-hydroxyphenylaceta] when you can.
20 to 26%

// below: inhibition at 50 µg/mL requested for another compound
Given CCC(C)C1(O)OC(C)C2(OC)C(=O)C(C)=C(OC)C12 (stereo not shown) [Compound 1, asperpentenone B] , respond with its inhibition at 50 µg/mL.
20 to 26%

Reference source for all entries: paper PMC10672402
